tested on: Wolbachia pipientis; assay: Anti-Wolbachia Cell-Based Screen; assay type: functional; set-up: scale not given: in the data most compounds retested in dose-response had high values; settings: 5 µM
Out of some 48,000 compounds screened, about 13,000 (27%) showed an effect of 50% or more. The list shows a part of the results.
Here, each record is paired with measured Percent Effect data.

{"columns": ["compound", "readout.units", "Percent Effect"],
 "data": [
  ["CN1CC(=O)N(c2cccnc2)CC12CCN(C(=O)C1CCCCC1)C2.O=C(O)C(F)(F)F.O=C(O)C(F)(F)F (configuration not stated)", "%", -22.33],
  ["CC(C)c1nnc2n1CCN(C(=O)c1cnc(C3CC3)s1)C2", "%", -14.42],
  ["O=C(NC1CCCCC1)N1CCn2c(nnc2C2CCCN2)C1 (configuration not stated)", "%", 120.9],
  ["Cc1noc(C2CCN(C(=O)CCc3nccs3)CC2)n1", "%", 4.096],
  ["COCCSc1ccc(C(C)NC(=O)Nc2cccnc2)cc1 (configuration not stated)", "%", -3.032],
  ["CC1CCCCN1C(=O)c1cn(-c2ccc(C(F)(F)F)cn2)nn1 (configuration not stated)", "%", -15.67],
  ["CN1CCN(C(=O)NC2CCCC2)Cc2cccnc21.O=C(O)C(F)(F)F", "%", -7.276],
  ["CCCc1cc(CN(C)C2CCSCC2)n[nH]1", "%", -21.94],
  ["CN1CCN(Cc2cnc3n2CCN(C(=O)N2CCCC2)C3)CC1", "%", -14.55],
  ["COc1cc(CCC(=O)N2CCC(c3cncc(C)n3)CC2)on1", "%", 141.8],
  ["Cc1cc(C(=O)N2CCC3(CC2)COCCN(c2cccnc2)C3)[nH]n1.O=C(O)C(F)(F)F", "%", -3.174],
  ["CN(C)Cc1cnc2n1CCN(C(=O)NC1CCCC1)CC2.O=C(O)C(F)(F)F", "%", -15.13]
]}

---

tested on: Wolbachia pipientis; assay: Anti-Wolbachia Cell-Based Screen; assay type: functional; design: scale not given: in the data most compounds retested in dose-response had high values; details: 5 µM
Hit rate of the full screen: of about 48,000 compounds, about 13,000 (27%) showed an effect of 50% or more. The list shows a part of the results.
Here, each record is paired with measured Percent Effect data.
endpoint: Percent Effect

{"columns": ["compound", "meas.value"],
 "data": [
  ["Cc1nn(C)c(N2CCOCC2)c1CNC1CCS(=O)(=O)C1 (stereo unspecified)", "-13.17%"],
  ["O=C(NCc1ccccc1F)N1CCCCC1C1OCCO1 (stereo unspecified)", "112.3%"],
  ["C1CCN(CCOC2CCNCC2)C1", "-3.216%"],
  ["O=C(NCCc1ccccc1)N1CCCCC1C1OCCO1 (stereo unspecified)", "1.192%"],
  ["O=c1c2c(ncn1CCO)nc1n2CCC1", "3.555%"],
  ["N#CCCN(CCC#N)C(=O)c1ccc(COc2ccccc2C#N)o1", "-1.523%"]
]}

---

Here, each record is paired with measured Percent Effect data.
tested on: Wolbachia pipientis; experiment: Anti-Wolbachia Cell-Based Screen; type: functional; set-up: scale not given: in the data most compounds retested in dose-response had high values; conditions: 5 µM
The whole screen tested about 48,000 compounds, of which about 13,000 (27%) showed an effect of 50% or more. Some of the results follow.

{"columns": ["compound", "Percent Effect, %"],
 "data": [
  ["Cc1ccccc1-c1cncc(C2CCN(C)CC2)n1", -14.26],
  ["CCC(=O)NCC(=O)NCC1(c2c(F)cccc2F)CCCC1", -0.7519],
  ["Cc1ccc(N2CCCc3sc(C(=O)NCc4ccncc4)nc32)nn1", -3.066],
  ["COc1ccc(N(C(=O)c2ccc(C)nc2)C(C)C)cc1F", -11.04],
  ["Cc1ccnn1CC(=O)N1CCCN(C2Cc3ccccc3C2)CC1", -5.068],
  ["Cc1occc1C(=O)NCc1ccc(N2CCCC(C(N)=O)C2)cc1 (stereo not given)", -5.63],
  ["CC(C)NC(=O)N1C[C@@H](F)[C@@H](OCc2nc3ccccc3o2)C1", -6.815],
  ["CN(C)S(=O)(=O)N1CCC(Cn2cccn2)CC1", 2.027],
  ["Cc1ccccc1CNC(=O)N1C[C@H]2C[C@H](C(=O)N(C)C)[C@@H](C1)O2", -3.016],
  ["Cl.NC(=O)c1ccc(CNC2CC2)cc1", 11.53],
  ["O=C(Cn1cncn1)NCC1(O)CCCc2ccccc21 (stereo not given)", 1.206],
  ["CC(C)(CN)NS(=O)(=O)c1cccc(F)c1F.Cl", -6.445],
  ["Cc1ccsc1CN(C)Cn1nccc1-c1cccnc1", 34.48],
  ["CC1CCN(CC2(O)CCCN(Cc3cccc(F)c3F)C2=O)CC1 (stereo not given)", -9.136],
  ["CCc1ccccc1C(=O)NS(=O)(=O)CCCC#N", -10.54]
]}

---

Here, each record is paired with measured Percent Effect data.
tested on: Wolbachia pipientis; experiment: Anti-Wolbachia Cell-Based Screen; assay type: functional; set-up: scale not given: in the data most compounds retested in dose-response had high values; conditions: 5 µM
Hit rate of the full screen: of about 48,000 compounds, about 13,000 (27%) showed an effect of 50% or more. Some of the results follow.
endpoint: Percent Effect (%)

{"columns": ["molecule", "tgt", "endpoint", "readout.units", "meas.value"],
 "data": [
  ["Cc1ccccc1SCC(=O)Nn1cnnc1", "Wolbachia pipientis", "Percent Effect", "%", -2.526],
  ["N#Cc1ccc(N2CCCC3(CCN(c4cccnc4)CC3)C2)cc1.O=C(O)C(F)(F)F", "Wolbachia pipientis", "Percent Effect", "%", 32.72],
  ["CN(C)C(=O)c1ccc(-c2cscn2)cc1", "Wolbachia pipientis", "Percent Effect", "%", -9.809],
  ["Cc1ccc2c(n1)N(C)CCN(C(=O)NC(C)C)C2.O=C(O)C(F)(F)F", "Wolbachia pipientis", "Percent Effect", "%", -4.064],
  ["COc1cccc2[nH]cc(CCNC(=O)N3CCOCC3C3CC3)c12 (stereo not drawn)", "Wolbachia pipientis", "Percent Effect", "%", -14.93],
  ["CCOC(C)c1nc(CN2CCC(C3OCCO3)CC2)cs1 (stereo not drawn)", "Wolbachia pipientis", "Percent Effect", "%", -5.348],
  ["COC(=O)c1sccc1S(=O)(=O)N1CCC(Oc2ncccc2Cl)CC1", "Wolbachia pipientis", "Percent Effect", "%", 25.07],
  ["Cc1ccc2c(n1)N(CCn1cccn1)CCN(C(=O)NC(C)C)C2", "Wolbachia pipientis", "Percent Effect", "%", 112.2]
]}

---

system: Wolbachia pipientis; test: Anti-Wolbachia Cell-Based Screen; format: functional; parameters: scale not given: in the data most compounds retested in dose-response had high values; details: 5 µM
About 13,000 (27%) of roughly 48,000 compounds showed an effect of 50% or more. Some of the results follow.
endpoint: Percent Effect (%)

{"columns": ["molecule", "tgt", "readout.units", "meas.value"],
 "data": [
  ["FC(F)(F)COCCN1CCN(c2ccc3nncn3n2)CC1", "Wolbachia pipientis", "%", -1.16],
  ["O=C(c1cc(F)cc(F)c1)N1CCC(O)(C(F)(F)F)CC1", "Wolbachia pipientis", "%", 87.26],
  ["O=C(CCC1CCN(C(=O)c2cc[nH]c2)CC1)NCc1cccc(Cl)c1", "Wolbachia pipientis", "%", 14.78],
  ["COc1ccccc1-c1csc(-c2cccc(C(=O)O)c2)n1", "Wolbachia pipientis", "%", 1.276],
  ["O=C(NC(CN1CCCC1)c1ccccc1)c1c(O)cc(F)cc1F (stereo not drawn)", "Wolbachia pipientis", "%", -3.42],
  ["Cc1nc(C2CCCN2Cc2nnc(Cc3ccccc3)o2)no1 (stereo not drawn)", "Wolbachia pipientis", "%", -12.76],
  ["CCC(C)NC(=O)c1cccc(CNC(=O)CC(F)(F)F)c1 (stereo not drawn)", "Wolbachia pipientis", "%", 4.521],
  ["c1cc(CCN2CCN(c3ccc4nncn4n3)CC2)ccn1", "Wolbachia pipientis", "%", 116],
  ["Cc1cnccc1CN(C)C1CCN(c2ncnc3[nH]cnc23)CC1", "Wolbachia pipientis", "%", -3.937],
  ["O=C(Cc1csc(-c2cccc(Cl)c2)n1)NCc1cccc(C(=O)O)c1", "Wolbachia pipientis", "%", 106.6],
  ["CC(=O)c1cc(CC(=O)NCc2c(F)cccc2F)cs1", "Wolbachia pipientis", "%", -9.682],
  ["CCC(CN1CCCC1)NC(=O)C1(c2cccc(F)c2)CC1.O=C(O)CC(O)(CC(=O)O)C(=O)O (stereo not drawn)", "Wolbachia pipientis", "%", 113.9],
  ["Cc1nc(C)n(CC2CCCCN2Cc2nnc(C3CC3)o2)n1 (stereo not drawn)", "Wolbachia pipientis", "%", 1.656]
]}
